Test system: IL-5
experiment.notes: Effect on cytokine production of mice sensitized by controlled-release ovalbumin: IL-5
Format: in vivo, BALB/c mouse
setup.conditions: Mus musculus, po; 30 mg/kg b.w. orally, 5 days a week during 9-day period; splenic cells incubated with OVA 3 days, ELISA; read-out: Suppression Rate (%) IL-5
Structures can show the parent of a compound that is named as a salt.
Hi all, reminder that labels come from inhibition in vivo at 30 mg/kg, split as bottom: < 10%; middle: ≥ 10% and < 50%; top: ≥ 50%

molecule: Cc1cccc2nc3c(c(C)nn3-c3ccccn3)c(N)c12 [Example 1-44]
class.label: bottom
--
molecule: Cc1cccnc1-n1nc(C)c2c(N)c3cccc(C)c3nc21 [Example 1-62]
class.label: bottom
--
molecule: COc1cccc2c(N)c3c(C)nn(-c4ccccn4)c3nc12 [Example 1-48, hydrochloride]
class.label: middle
--
molecule: Cc1cccc2c(=O)c3c(C)nn(-c4ccccn4)c3[nH]c12 [Example 1-47]
class.label: top
--
molecule: COc1cc2[nH]c3c(c(C)nn3-c3ccccn3)c(=O)c2cc1OC [Example 1-49]
class.label: middle

Query block: For this molecule, which bin applies? Cc1nn(-c2ccccn2)c2[nH]c3ccc(Cl)cc3c(=O)c12 [Example 1-51]
Result block: top

Query block: Band assignment needed for Cc1cccc2c(N)c3c(C)nn(-c4ccc5ccccc5n4)c3nc12 [Example 1-66] please.
Result block: middle

Query block: Class label required: CSc1ccc2[nH]c3c(c(C)nn3-c3ccccn3)c(=O)c2c1 [Example 1-50]
Result block: top

###

Reported melting point values for the following compounds.
Use °C as the unit, but write only the number.

Reference set (3 entries):
compound: Cc1cccc(-n2nc(C)c3c(Cl)c4ccccc4nc32)n1 [Example 2-207]
reported: 154
--
compound: Cc1cccc(-n2nc(C)c3c(=O)c4ccccc4[nH]c32)n1 [Example 2-208]
reported: 252
--
compound: Cc1nn(-c2ccccn2)c2[nH]c3cc(F)c(Cl)cc3c(=O)c12 [Example 2-99]
reported: 284

Query block: Fill blank: measured melting point of the compound Cc1nn(-c2ccccn2)c2nc3ccc(C(F)(F)F)cc3c(Cl)c12 [Example 2-39] is ____.
Result block: 206

###

Property: inhibition in vivo at 30 mg/kg; scope: individual compounds
Tested on: IL-4
experiment.notes: Effect on cytokine production of mice sensitized by controlled-release ovalbumin: IL-4
Type: in vivo, BALB/c mouse
setup.conditions: Mus musculus, po; 30 mg/kg b.w. orally, 5 days a week during 9-day period; splenic cells incubated with OVA 3 days, ELISA; read-out: Suppression Rate (%) IL-4
Counter-ions that a name gives are not always drawn.
Number plus unit, in that order.

Please review the entries below; each comes with its answer.
compound: Cc1cccc2nc3c(c(C)nn3-c3ccccn3)c(N)c12
inhibition in vivo at 30 mg/kg: 68.2%

compound: CCOc1cccc(-n2nc(C)c3c(Cl)c4c(C)cccc4nc32)n1
inhibition in vivo at 30 mg/kg: 43.2%

compound: COc1cccc2c(N)c3c(C)nn(-c4ccccn4)c3nc12 [Example 1-48, hydrochloride]
inhibition in vivo at 30 mg/kg: 31.6%

compound: Cc1cccc2c(N)c3c(C)nn(-c4ccccn4)c3nc12 [Example 1-46, hydrochloride]
inhibition in vivo at 30 mg/kg: 80.4%

compound: Cc1nn(-c2cccnc2)c2[nH]c3ccccc3c(=O)c12
inhibition in vivo at 30 mg/kg: 49.1%

Query block: Consider the compound Cc1cccnc1-n1nc(C)c2c(N)c3cccc(C)c3nc21 and give its measured inhibition in vivo at 30 mg/kg.
Result block: 19.4%

Query block: What value of inhibition in vivo at 30 mg/kg has been recorded for this entry: Cc1nn(-c2ncccn2)c2nc3ccccc3c(N)c12 [Example 1-65, hydrochloride]
Result block: 8.1%

Query block: inhibition in vivo at 30 mg/kg lookup needed for CCOc1cccc(-n2nc(C)c3c(=O)c4cccc(C)c4[nH]c32)n1 , thanks.
Result block: 16%

Query block: I would be grateful if you could share the reported inhibition in vivo at 30 mg/kg for COc1cc2[nH]c3c(c(C)nn3-c3ccccn3)c(=O)c2cc1OC .
Result block: 13.9%

Query block: Param item = CSc1ccc2[nH]c3c(c(C)nn3-c3ccccn3)c(=O)c2c1 ; retrieve measured inhibition in vivo at 30 mg/kg.
Result block: 45.5%

Query block: Quick one: inhibition in vivo at 30 mg/kg for Cc1nn(-c2ccccn2)c2nc3ccccc3c(N)c12.Cl [Example 1-36, hydrochloride] ?
Result block: 99.8%

Query block: Endpoint output: inhibition in vivo at 30 mg/kg of COc1cccc(-n2nc(C)c3c(N)c4cccc(C)c4nc32)n1 . Value?
Result block: 66.5%

###

readout: melting point

Known melting point results, listed for orientation:
smi: NC(=O)Cc1nn(-c2ccccn2)c2[nH]c3ccccc3c(=O)c12
melting point: 302 to 305 °C
//
smi: COc1cc2[nH]c3c(c(C)nn3-c3ccccn3)c(=O)c2cc1OC
melting point: 238 to 239 °C
//
smi: COC(=O)c1cccc2[nH]c3c(c(C)nn3-c3ccccn3)c(=O)c12
melting point: 241 to 244 °C
//
smi: Cc1nn(-c2cccnc2)c2nc3cc(F)c(F)cc3c(Cl)c12
melting point: 192 to 194 °C
//
smi: Cc1nn(-c2ccncc2)c2nc3cc(F)c(F)cc3c(Cl)c12
melting point: 226 to 228 °C
//
smi: Cc1nn(-c2ccccn2)c2nc(O)c(Cc3ccccc3)c(C)c12
melting point: 208 to 209 °C
//
smi: Cc1cccc2c(=O)c3c(C)nn(-c4ccc5ccccc5n4)c3[nH]c12
melting point: 255 to 257 °C
//
smi: CCCSc1c2ccccc2nc2c1c(C)nn2-c1ccccn1
melting point: 91 to 93 °C

Query block: # melting point lookup, item Cc1nn(-c2ccncc2)c2[nH]c3ccccc3c(=O)c12
Result block: > 300 °C

Query block: Name the reported melting point value associated with the compound CCOc1cccc(-n2nc(C)c3c(=O)c4c(C)cccc4[nH]c32)n1
Result block: 213 to 215 °C

###

# Lookup of reported melting point keyed by entry

Known melting point results, listed for orientation:
molecule: Cc1nn(-c2ccc(Cl)cn2)c2nc3ccccc3c(Cl)c12 [Example 2-113]
melting point: 216 to 217 °C
//
molecule: Cc1cccnc1-n1nc(C)c2c(Cl)c3cccc(C)c3nc21 [Example 2-133]
melting point: 182 to 185 °C
//
molecule: Cc1nn(-c2ccccn2)c2nc(O)c3c(c12)CCCC3 [Example 1-29]
melting point: 248 to 249 °C
//
molecule: COC(=O)c1ccc2[nH]c3c(c(C)nn3-c3ccccn3)c(=O)c2c1 [Example 2-64]
melting point: 265 to 266 °C

Query block: Dear colleague, I am looking for the recorded melting point of the following molecule: Cc1ccc(-n2nc(C)c3c(Cl)c4ccccc4nc32)nc1 [Example 2-115]
Result block: 197 to 200 °C

###

Below: a set of entries, each annotated with reported melting point.

The examples below pair each entry with its known result.
smi: COc1cc2nc3c(c(C)nn3-c3ccccn3)c(N)c2cc1OC.Cl
readout: melting point
reported: 277 to 280 °C
//
smi: Cc1nn(-c2ccccn2)c2nc(O)c3c(c12)CCCCC3
readout: melting point
reported: 243 to 244 °C
//
smi: Cc1nn(Cc2ccccn2)c2[nH]c3ccccc3c(=O)c12
readout: melting point
reported: 269 to 272 °C
//
smi: CCOC(=O)c1nn(-c2ccccn2)c2nc3ccccc3c(Cl)c12
readout: melting point
reported: 164 to 166 °C
//
smi: Cc1nn(-c2ccccn2)c2[nH]c3ccsc3c(=O)c12
readout: melting point
reported: 228 to 229 °C
//
smi: CCCc1c2ccccc2nc2c1c(C)nn2-c1ccccn1
readout: melting point
reported: 108 to 109 °C
//
smi: COC(=O)c1ccc2c(=O)c3c(C)nn(-c4ccccn4)c3[nH]c2c1
readout: melting point
reported: 251 to 252 °C
//
smi: O=c1c2cc(Cl)ccc2[nH]c2c1cnn2-c1ccccn1
readout: melting point
reported: 297 to 298 °C

Query block: May I ask what melting point has been recorded for Cc1cc(O)c2c(C)nn(-c3ccccn3)c2n1 ?
Result block: 175 to 176 °C

Query block: Recorded melting point for Cc1nn(-c2ccccn2)c2nc3ccc(F)cc3c(Cl)c12 , please?
Result block: 185 to 187 °C

Query block: # get_value(readout='melting point', item= Cc1nn(-c2ccccn2)c2nc3ccccc3c(N(C)C)c12 )
Result block: 98 to 101 °C

###

study.target: human COX-2 (Homo sapiens, UniProt P35354)
Construct: made in house; host or cells: Sf-21 insect cells (recombinant baculovirus BAC-COX2, pFASTBAC1); microsome fraction
Sequence (P35354 18-604): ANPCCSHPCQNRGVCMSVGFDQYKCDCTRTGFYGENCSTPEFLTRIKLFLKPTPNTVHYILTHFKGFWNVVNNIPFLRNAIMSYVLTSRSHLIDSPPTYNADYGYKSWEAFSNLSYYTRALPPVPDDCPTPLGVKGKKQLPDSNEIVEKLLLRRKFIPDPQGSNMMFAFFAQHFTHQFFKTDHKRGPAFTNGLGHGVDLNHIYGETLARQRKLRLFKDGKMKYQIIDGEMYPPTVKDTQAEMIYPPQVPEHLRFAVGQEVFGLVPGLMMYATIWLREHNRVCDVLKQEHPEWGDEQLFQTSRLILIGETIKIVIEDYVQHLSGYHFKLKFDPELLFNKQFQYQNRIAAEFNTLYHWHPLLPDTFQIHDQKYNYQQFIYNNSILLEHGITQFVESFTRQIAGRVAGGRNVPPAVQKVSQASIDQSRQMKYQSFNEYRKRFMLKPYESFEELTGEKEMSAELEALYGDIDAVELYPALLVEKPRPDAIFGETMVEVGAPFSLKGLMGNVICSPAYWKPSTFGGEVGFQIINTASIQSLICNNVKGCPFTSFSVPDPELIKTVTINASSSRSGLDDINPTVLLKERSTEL
experiment.notes: Determination of COX-2 inhibitory activity (microsome fraction, chemiluminescence)
Assay type: biochemical
setup.conditions: microsome fraction 20 μg, arachidonic acid, 37° C. 25 minutes preincubation; read-out: Repression rate IC50 (μM) COX-2
compounds and their reported IC50
Field: numeric (µM). Do not append units.

Query block: Field request: IC50 | item: O=c1c2ccccc2[nH]c2c1cnn2-c1ccccn1
Result block: 1.37

Query block: Entry CCCOc1c2ccccc2nc2c1c(C)nn2-c1ccccn1 : reported IC50 = ?
Result block: 49.2

Query block: Record request: IC50 value, item Cc1nn(-c2ccccn2)c2[nH]c3cc(F)c(F)cc3c(=O)c12.O [Example 2-92, monohydrate]
Result block: 0.465
